inhibition at 20 µM reference
System: RAW264.7
ASSAY OVERVIEW: Antiosteoclast activity in mouse RAW264.7 cells assessed as inhibition of RANKL-induced osteoclast differentiation at 20 uM after 5 days by TRAP assay
Type: functional
RUN CONDITIONS: RAW264.7, 120 h
Number only, in %; omit the unit.

The following compounds have reported results that may help.
- LINE NOTATION: "CC1(C)CC[C@]2(C(=O)NCCN3CCCCC3)CC[C@]3(C)C(=CC[C@@H]4[C@@]5(C)Cc6cn(S(=O)(=O)c7ccc(Br)cc7)nc6C(C)(C)[C@@H]5CC[C@]43C)[C@@H]2C1"
  inhibition at 20 µM [%]: 100
- LINE NOTATION: "CC1(C)CC[C@]2(C(=O)NC3CCN(Cc4ccccc4)CC3)CC[C@]3(C)C(=CC[C@@H]4[C@@]5(C)Cc6cn(S(=O)(=O)c7ccc(F)cc7)nc6C(C)(C)[C@@H]5CC[C@]43C)[C@@H]2C1"
  inhibition at 20 µM [%]: 82.9
- LINE NOTATION: "CC1(C)CC[C@]2(C(=O)NCCN3CCCCC3)CC[C@]3(C)C(=CC[C@@H]4[C@@]5(C)Cc6c[nH]nc6C(C)(C)[C@@H]5CC[C@]43C)[C@@H]2C1"
  inhibition at 20 µM [%]: 100
- LINE NOTATION: "Cc1cccc(S(=O)(=O)n2cc3c(n2)C(C)(C)[C@@H]2CC[C@]4(C)[C@H](CC=C5[C@@H]6CC(C)(C)CC[C@]6(C(=O)NCCN6CCCCC6)CC[C@]54C)[C@@]2(C)C3)c1"
  inhibition at 20 µM [%]: 100

Shift focus to the following entry.
Given the entry `CC1(C)CC[C@]2(C(=O)NC3CCN(Cc4ccccc4)CC3)CC[C@]3(C)C(=CC[C@@H]4[C@@]5(C)Cc6cn(S(=O)(=O)c7ccc(OC(F)(F)F)cc7)nc6C(C)(C)[C@@H]5CC[C@]43C)[C@@H]2C1` , report its measured inhibition at 20 µM.
71.9

---

ASSAY OVERVIEW: Cytotoxicity against mouse RAW264.7 cells assessed as inhibition of cell viability at 5 uM after 24 hrs by MTT assay
Type: cell-based
RUN CONDITIONS: read-out: INH
PARAMETER: cytotoxicity at 24 h, 5 µM (%)
Number only, in %; omit the unit.

The following compounds have reported results that may help.
- LINE NOTATION: "CC1(C)CC[C@]2(C(=O)NCCN3CCCCC3)CC[C@]3(C)C(=CC[C@@H]4[C@@]5(C)Cc6cn(S(=O)(=O)c7ccc(Br)cc7)nc6C(C)(C)[C@@H]5CC[C@]43C)[C@@H]2C1"
  PARAMETER: "cytotoxicity at 24 h, 5 µM"
  SCALE UNIT: "%"
  OBSERVED VALUE: 0
- LINE NOTATION: "CC1(C)CC[C@]2(C(=O)NCCN3CCCCC3)CC[C@]3(C)C(=CC[C@@H]4[C@@]5(C)Cc6c[nH]nc6C(C)(C)[C@@H]5CC[C@]43C)[C@@H]2C1"
  PARAMETER: "cytotoxicity at 24 h, 5 µM"
  SCALE UNIT: "%"
  OBSERVED VALUE: 0
- LINE NOTATION: "CC1(C)CC[C@]2(C(=O)NCCN3CCCCC3)CC[C@]3(C)C(=CC[C@@H]4[C@@]5(C)Cc6cn(S(=O)(=O)c7ccc(F)cc7)nc6C(C)(C)[C@@H]5CC[C@]43C)[C@@H]2C1"
  PARAMETER: "cytotoxicity at 24 h, 5 µM"
  SCALE UNIT: "%"
  OBSERVED VALUE: 0
- LINE NOTATION: "COc1ccc(S(=O)(=O)n2cc3c(n2)C(C)(C)[C@@H]2CC[C@]4(C)[C@H](CC=C5[C@@H]6CC(C)(C)CC[C@]6(C(=O)NC6CCN(Cc7ccccc7)CC6)CC[C@]54C)[C@@]2(C)C3)cc1"
  PARAMETER: "cytotoxicity at 24 h, 5 µM"
  SCALE UNIT: "%"
  OBSERVED VALUE: 0
- LINE NOTATION: "COc1ccc(S(=O)(=O)n2cc3c(n2)C(C)(C)[C@@H]2CC[C@]4(C)[C@H](CC=C5[C@@H]6CC(C)(C)CC[C@]6(C(=O)NCCN6CCCCC6)CC[C@]54C)[C@@]2(C)C3)cc1"
  PARAMETER: "cytotoxicity at 24 h, 5 µM"
  SCALE UNIT: "%"
  OBSERVED VALUE: 0

Given the entry `COc1ccc(S(=O)(=O)n2cc3c(n2)C(C)(C)[C@@H]2CC[C@]4(C)[C@H](CC=C5[C@@H]6CC(C)(C)CC[C@]6(C(=O)NC6CCN(Cc7ccccc7)CC6)CC[C@]54C)[C@@]2(C)C3)cc1OC` , report its measured cytotoxicity at 24 h, 5 µM.
0

Given the entry `COc1ccc(S(=O)(=O)n2cc3c(n2)C(C)(C)[C@@H]2CC[C@]4(C)[C@H](CC=C5[C@@H]6CC(C)(C)CC[C@]6(C(=O)NCCN6CCCCC6)CC[C@]54C)[C@@]2(C)C3)cc1OC` , report its measured cytotoxicity at 24 h, 5 µM.
0

Given the entry `Cc1noc(C)c1S(=O)(=O)n1cc2c(n1)C(C)(C)[C@@H]1CC[C@]3(C)[C@H](CC=C4[C@@H]5CC(C)(C)CC[C@]5(C(=O)NCCN5CCCCC5)CC[C@]43C)[C@@]1(C)C2` , report its measured cytotoxicity at 24 h, 5 µM.
0
